target: Translocator protein (Homo sapiens, UniProt P30536)
Sequence (P30536 whole entry): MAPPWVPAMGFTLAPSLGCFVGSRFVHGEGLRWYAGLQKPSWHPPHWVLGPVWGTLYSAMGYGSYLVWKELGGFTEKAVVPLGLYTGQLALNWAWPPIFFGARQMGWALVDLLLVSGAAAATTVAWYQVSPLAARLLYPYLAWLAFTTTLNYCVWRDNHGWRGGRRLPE

>  <chemical-smiles>
CCCC(CCC)c1nc2c(Nc3ccc(I)cc3)nc3ccccc3c2[nH]1

>  <Ki / nM>
123

$$$$

====

molecular target: Cytochrome P450 1A2 (Homo sapiens) (UniProt P05177)
result-type: IC50 (µM)

>  <compound>
Clc1ccc(COC(Cn2ccnc2)c2ccc(Cl)cc2Cl)c(Cl)c1 (configuration not stated)

>  <tested-target>
Cytochrome P450 1A2 (Homo sapiens) (UniProt P05177)

>  <observed-measurement>
4.55

$$$$
>  <compound>
Clc1ccc(Nc2nc3ccccc3c3[nH]c(C4CCC=CCC4)nc23)cc1Cl

>  <tested-target>
Cytochrome P450 1A2 (Homo sapiens) (UniProt P05177)

>  <observed-measurement>
6.99

$$$$

// provenance: ChEMBL document CHEMBL5096242
